Recorded measurements of melting point, one per entry

Past entries and their recorded results:
## Input Report melting point for CC(C)Nc1nc(N)nc2c1ncn2C1C=CC(CO)C1 (centres undefined) please.
## Output 87 to 90 °C

## Input Try this compound next: `CC(C)(C)OC(=O)NCC(=O)Oc1cc(Cl)c(Cl)cc1Cl`
## Output 100 to 103 °C

## Input Entry to check: `COc1cc2ncnc(Nc3cccc(Cl)c3F)c2cc1O`
## Output 265 to 268 °C

## Input Also need `CC(C)(O)c1ccc(N2CCN(c3ccncc3)CC2)cc1` , thanks.
## Output 234 to 235 °C

## Input What do you have for `COC(=O)CCCc1cc2nc(Cl)ccc2n1S(=O)(=O)c1ccc(N(C)C)cc1` ?
## Output 188 °C

Continuing:
## Input Would you kindly share the measured melting point for Cc1cn(C(C)C(=O)N2CCOCC2)nc1-c1ccccc1 (centres undefined) ?
## Output 84 to 96 °C

## Input What do you have for `COCc1cccc(OCCc2cnc(S)[nH]c2=O)c1` ?
## Output 117 to 119 °C

## Input `Cc1cc(Cc2cc(C(F)(F)F)cc(C(F)(F)F)c2)ccc1NC(=O)c1cccc(Cl)c1C(=O)N[C@@H](C)CS(C)(=O)=O` ?
## Output 155 to 158 °C

## Input // same read-out, input: `Cc1ccc(S(=O)(=O)NC(=O)OCCc2ccc(-n3c(CCC(=O)N4CCCCC4)nc4cc(C(F)(F)F)c(Cl)cc43)cc2)cc1`
## Output 210 °C

## Input And what about the compound `COCCC1(C(=O)N[C@@H](Cc2ccc(NC(=O)c3c(Cl)cccc3Cl)cc2)C(=O)O)CCCC1` ?
## Output 136 to 140 °C

## Input Input `COC(=O)c1nc(-c2ccc(Cl)cc2)nc(NCc2ccco2)c1Cl`
## Output 132 to 134 °C

## Input How about `CC(C)COc1c(C2CCN(CCCCNC(=O)c3ccc(-c4ccc(C(F)(F)F)cc4)cc3)CC2)ccc2c1CCCC2` ?
## Output 165 °C

## Input Again, but for `CCOC(=O)N1CCc2nc(-c3ccncc3)cc(=O)n2CC1`
## Output 191 to 193 °C

## Input Thanks! And `COCCNc1c([N+](=O)[O-])cc(C)cc1[N+](=O)[O-]` ?
## Output 75 °C

## Input Also `CN1C(=O)CC[C@]2(C)c3ccc(Sc4nc5cc([N+](=O)[O-])ccc5s4)cc3CC[C@@H]12` , if possible.
## Output 96 to 100 °C

## Input Now try `CCCn1nc2c(-c3ccccc3)cccc2c1-c1ccc(O)cc1` .
## Output 207 to 208 °C

====

ASSAY_METRIC: melting point

Below are worked cases with known answers.
## Input Returns the measured melting point for the input compound. Input: CCCCCC1CCC(CCC2OCC(CCC)CO2)CC1 (stereo not given)
## Output 44 °C

## Input Would you mind doing `CCOC(=O)c1cn(C)c2cnc3cc(N4CCCC4)c(F)cc3c2c1=O` as well?
## Output 270 °C

## Input Also need COC(=O)C1CC(C#N)(c2ccc(OC(F)F)c(OC3CCCC3)c2)CCC1=O (stereo not given) , thanks.
## Output 109 to 110 °C

## Input Also `O=[N+]([O-])c1ccc(OC(c2ccc(F)cc2)(c2ccc(F)cc2)c2nccs2)cc1C(F)(F)F` ?
## Output 133 to 134 °C

## Input Would you kindly repeat that for CC1(CN=[N+]=[N-])COC(Cn2ccnc2)(c2ccc(Cl)cc2Cl)OC1 (stereo not given) ?
## Output 132 to 133 °C

## Input Cool, now `CC(=O)Nc1nc(C(F)(F)F)ns1`
## Output 178 °C

---
## Input Query: melting point; subject: `N#Cc1c2c(c3c(c1N1CCCCC1)Cc1ccccc1-3)Cc1ccccc1-2`
## Output 186 to 188 °C

## Input Now consider `COc1cc(CO)cc(OC)c1OCCO` .
## Output 26 to 28 °C

## Input // next record CSC(C)(C(=O)O)c1ccc(N2C(=O)c3ccccc3C2=O)cc1 (stereo not given)
## Output 202 to 204 °C

## Input Check `Cc1ccc(S(=O)(=O)OCC2Cc3ccccc3C2)cc1` too.
## Output 95 to 97 °C

## Input And the next one, `C[C@H]1CN(C(=O)OC(C)(C)C)CCCN1S(=O)(=O)c1ccccc1[N+](=O)[O-]` ?
## Output 113 to 114 °C
